measurement notes: in vitro
conditions used: rat
Description: Selectivity index, ratio of IC50 for rat L6 cells to IC50 for Trypanosoma brucei rhodesiense STIB900 trypomastigotes
Label scheme for selectivity ratio: lower than 30 is FALSE, 30 and above is TRUE.

Inquiry: Is selectivity ratio at least 30? Consider O=C(Cn1cnc([N+](=O)[O-])n1)Nc1cccc(OCc2ccccc2)c1
Reply text: FALSE

Inquiry: Now the same for O=C(Cn1cnc([N+](=O)[O-])n1)Nc1ccc(Oc2ccc(Cl)cc2)cc1
Reply text: FALSE

Inquiry: Now the same for O=C(Cn1cnc([N+](=O)[O-])n1)Nc1ccc(Oc2ccc(F)cc2)cc1
Reply text: TRUE

Inquiry: Now the same for O=C(Cn1cnc([N+](=O)[O-])n1)Nc1ccc(Oc2ccccc2)cc1
Reply text: TRUE

Inquiry: Now the same for CN(C(=O)Cn1cnc([N+](=O)[O-])n1)c1ccc(C(F)(F)F)cc1
Reply text: FALSE

Inquiry: Now the same for O=C(CCn1cnc([N+](=O)[O-])n1)Nc1cc(-c2ccc(F)cc2)on1
Reply text: TRUE

Inquiry: Now the same for O=C(Cn1cnc([N+](=O)[O-])n1)NCc1ccc(C(F)(F)F)cc1
Reply text: FALSE

Inquiry: Now the same for N#Cc1ccc(-c2ccc(NC(=O)Cn3cnc([N+](=O)[O-])n3)cc2)cc1
Reply text: TRUE
